# assay details: Pharmacokinetic study, plasma LC/MS/MS
# Type: in vivo, A/J mice
# condition parameters: female, A/J, mouse, plasma, po, 200 mg/kg

# molecule, Cmax / ng/mL
measured = [
    ("COc1cc(/C=C/C(=O)CC(=O)/C=C/c2ccc(O)c(OC)c2)ccc1O [curcumin, reference compound]", 55.6),
]

###

# Test system: premalignant (MSK-LEUK1) and malignant SCCHN cell lines
# assay details: SRB growth inhibition assay, cell line panel
# Assay type: cell-based
# condition parameters: 72 h, read-out: IC50 values, range over the cell lines

# compound, study target, IC50
measured = [
    ("COc1cc(/C=C/C(=O)CC(=O)/C=C/c2ccc(O)c(OC)c2)ccc1O [curcumin, reference compound]", "premalignant (MSK-LEUK1) and malignant SCCHN cell lines", "4.53 to 17.4 µM"),
]

###

# assay details: Pharmacokinetic study, plasma LC/MS/MS
# Assay type: in vivo, A/J mice
# condition parameters: female, A/J, mouse, plasma, po, 200 mg/kg

# molecule, Tmax (min)
records = [
    ("COc1cc(/C=C/C(=O)CC(=O)/C=C/c2ccc(O)c(OC)c2)ccc1O [curcumin, reference compound]", 15),
]

###

# Tested on: PCI-13
# assay details: SRB growth inhibition assay, PCI-13
# Assay type: cell-based
# condition parameters: 72 h
assay metric: IC50

# compound, reported measurement
data = [
    ("COc1cc(/C=C/C(=O)CC(=O)/C=C/c2ccc(O)c(OC)c2)ccc1O [curcumin, reference compound]", "5.73 µM"),
]

###

# Test system: Tu686
# assay details: SRB growth inhibition assay, Tu686
# Format: cell-based
# condition parameters: Tu 686, 72 h
pIC50: −log10 of the molar value.

# molecule, pIC50
measured = [
    ("COc1cc(/C=C/C(=O)CC(=O)/C=C/c2ccc(O)c(OC)c2)ccc1O [curcumin, reference compound]", 5.17),
]

###

# Test system: Tu177
# assay details: SRB growth inhibition assay, Tu177
# Type: cell-based
# condition parameters: Tu177, 72 h, SRB assay
pIC50: −log10 of the molar value.
assay metric: pIC50

# molecular string, assay metric, reported measurement
data = [
    ("COc1cc(/C=C/C(=O)/C=C/c2cc(OC)c(O)c(OC)c2)cc(OC)c1O", "pIC50", 6.35),
]

###

# assay details: Pharmacokinetic study, plasma LC/MS/MS
# Format: in vivo, A/J mice
# condition parameters: female, A/J, mouse, plasma, po, 200 mg/kg

# compound, endpoint unit, AUC(0-inf)
records = [
    ("COc1cc(/C=C/C(=O)CC(=O)/C=C/c2ccc(O)c(OC)c2)ccc1O [curcumin, reference compound]", "ng·h/mL", 131),
]

###

# assay details: Pharmacokinetic study, plasma LC/MS/MS
# Assay type: in vivo, A/J mice
# condition parameters: female, A/J, mouse, plasma, po, 200 mg/kg
assay metric: half-life (h)

# molecule, reported measurement
rows = [
    ("COc1cc(/C=C/C(=O)CC(=O)/C=C/c2ccc(O)c(OC)c2)ccc1O [curcumin, reference compound]", 7.7),
]

###

# Test system: Tu177
# assay details: SRB growth inhibition assay, Tu177
# Assay type: cell-based
# condition parameters: 72 h

# compound, IC50 (µM)
measured = [
    ("COc1cc(/C=C/C(=O)CC(=O)/C=C/c2ccc(O)c(OC)c2)ccc1O [curcumin, reference compound]", 5.25),
]
